Sourced from PubChem BioAssay AID2685

# reported cell number change; entries follow
Assay: qHTS Assay for Lipid Storage Modulators in Drosophila S3 Cells;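 note: cells counted by Cell Tracker Red CMTPX staining in the red channel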
Details: BODIPY lipid droplet fluorescence, 18-24 h, cells fed with added oleic acid; measured here: cell count max response
Among all 320,000 compounds or so, about 2,100 (0.66%) were called active. Inconclusive results (about 53%) are left out. The sample as a whole holds a higher share of actives than the screen did.
Reply with just the number (in %).

Below are worked cases with known answers.
Measured cell number change of CSc1nc(=S)n(Cc2ccccc2)c(C)c1C(C)=O : 2.19

Measured cell number change of CN(C)c1nc(N(C)C)nc(N2CCCCC2)n1 : 10.3

Measured cell number change of COc1ccc(CC2(CO)CCN(C(C)Cc3ccc(Cl)cc3)CC2)cc1 (stereo not drawn) : -1.88

Measured cell number change of CCc1cc(=O)oc2cc(OCC(=O)NCCCN3CCCC3=O)ccc12 : 3.54

Measured cell number change of O=C(Cn1cnc([N+](=O)[O-])n1)NCCO : 0.588

Further cases:
Measured cell number change of Cc1c(OCC(=O)NCCCN2CCCC2=O)ccc2c3c(c(=O)oc12)CCCC3 : -7.37

Measured cell number change of O=C1[C@@H]2[C@H](C(=O)N1n1cnnc1)[C@H]1C=C[C@@H]2C1 : 1.74

Measured cell number change of CC(Oc1cc2oc(=O)c3c(c2cc1Cl)CCC3)C(=O)NCCN1CCOCC1 (stereo not drawn) : 9.27

====

# reported cell number change; entries follow
Experiment: qHTS Assay for Lipid Storage Modulators in Drosophila S3 Cells;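 note: cells counted by Cell Tracker Red CMTPX staining in the red channel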
Conditions: BODIPY lipid droplet fluorescence, 18-24 h, cells fed with added oleic acid; measured here: cell count max response
In all, about 320,000 compounds went through this assay and about 2,100 (0.66%) were called active. Not shown: some 53% with an inconclusive outcome. The list comes from a sample in which actives are over-represented; it also holds close analogues and randomly drawn compounds.
Reply with just the number (in %).

Below are worked cases with known answers.
Measured cell number change of CCCN1CCc2c(sc(NC(=O)c3ccc(S(=O)(=O)N(C)c4ccccc4)cc3)c2C(=O)NC)C1 : -17.2

Measured cell number change of CCCn1c(SCC(=O)Nc2nnc(C)s2)nnc1-c1ccoc1C : -14

Measured cell number change of Cc1cccn2c(=O)c(/C=C(\C#N)S(=O)(=O)c3ccccc3)c(Oc3ccc(Cl)cc3)nc12 : -10.2

Measured cell number change of CCCN1CCc2c(sc(NC(=S)NC(=O)c3ccccc3)c2C#N)C1 : 3.88

Further cases:
Measured cell number change of CN1CCc2c(sc(NC(=O)c3ccc(C(=O)c4ccccc4)cc3)c2C(N)=O)C1 : 0.647

Measured cell number change of CNc1ccc(Oc2c(F)c(F)nc(F)c2F)cc1 : -27.7

Measured cell number change of Cc1cc[n+]2c3c(cccc13)CCC2 : 21.6

Measured cell number change of NC(=O)Nc1ccc(C(=O)OCC(=O)N2CCCC2=O)cc1 : -27.9

Measured cell number change of O=C(OCC(=O)N1CCCC1=O)c1nc(Cl)c(Cl)c(Cl)c1Cl : -29

Measured cell number change of CCCN1CCc2c(sc(NC(=O)c3ccc(S(=O)(=O)N4CCN(C(=O)OCC)CC4)cc3)c2C(N)=O)C1 : -7.97

====

Assay: qHTS Assay for Lipid Storage Modulators in Drosophila S3 Cells;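 note: cells counted by Cell Tracker Red CMTPX staining in the red channel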
Conditions: BODIPY lipid droplet fluorescence, 18-24 h, cells fed with added oleic acid; measured here: cell count max response
Screen size: about 320,000 compounds; about 2,100 (0.66%) were called active. Inconclusive results (about 53%) are left out. This excerpt belongs to a sample that is enriched for actives.
# reported cell number change; entries follow
Reply with just the number (in %).

Below are worked cases with known answers.
Measured cell number change of COC(CNC(=O)CN1CCN(Cc2ccc(F)cc2Cl)C1=O)OC : -2.41

Measured cell number change of COc1ccc(C)cc1NC(=O)C1CCC(CNc2c(N3CCOCC3)c(=O)c2=O)CC1 (stereo unspecified) : 18.9

Measured cell number change of COc1ccccc1Nc1nc(N)nc(CSC(=S)N2CCC(C)CC2)n1 : 8.57

Measured cell number change of O=C(Cn1cc([N+](=O)[O-])cn1)Nc1nccs1 : 10.2

Measured cell number change of Cc1cc(C(=O)NC2CCCc3c2cnn3-c2cccc(C)c2C)n(C)n1 (stereo unspecified) : 5.94

Further cases:
Measured cell number change of COc1ccc(-c2cc(C(=O)N3CCOCC3)no2)cc1OC : -3.96

Measured cell number change of COc1cc(C(=O)NC2CC(C)(C)Cc3c2cnn3-c2ccccc2)cc(OC)c1OC (stereo unspecified) : 9.79

Measured cell number change of Cc1cccc(-n2ncc3c2CCCC3NC(=O)CN2CCCC2=O)c1C (stereo unspecified) : -2.49
